target: AKT3 (Homo sapiens); construct: purchased SignalChem; assay: AKT Kinase Assay (IMAP fluorescent polarisation) vs AKT3; type: biochemical; details: activated AKT3, FAM Crosstide substrate
Sequence (Q9Y243 whole entry): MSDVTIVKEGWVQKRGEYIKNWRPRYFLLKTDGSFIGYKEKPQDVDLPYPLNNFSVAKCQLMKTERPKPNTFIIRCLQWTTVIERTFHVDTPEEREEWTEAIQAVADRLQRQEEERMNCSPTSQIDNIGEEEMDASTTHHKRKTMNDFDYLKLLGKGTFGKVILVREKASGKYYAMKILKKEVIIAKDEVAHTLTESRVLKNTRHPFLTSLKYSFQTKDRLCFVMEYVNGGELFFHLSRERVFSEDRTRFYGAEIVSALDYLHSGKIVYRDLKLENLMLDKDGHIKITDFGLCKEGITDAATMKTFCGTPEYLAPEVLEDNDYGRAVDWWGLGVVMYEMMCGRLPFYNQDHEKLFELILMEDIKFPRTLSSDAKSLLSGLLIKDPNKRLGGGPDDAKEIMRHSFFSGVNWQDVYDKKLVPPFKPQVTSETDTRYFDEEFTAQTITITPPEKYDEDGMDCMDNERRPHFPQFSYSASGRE
Counter-ions that a name gives are not always drawn.
parameter: IC50

Reference set, count: 2
>>> df
                                   molecule      measured_target  measured_result
0  CN(C)c1nc(NCCO)nc2oc(-c3ccc(C4(N)CCC4)cc3)c(-c3ccccc3)c12 [Example 70, HCl]  AKT3 (Homo sapiens)          > 10 µM
1  N#Cc1ccc2oc(-c3ccc(C4(N)CCC4)cc3)c(-c3ccccc3)c2c1  AKT3 (Homo sapiens)          > 10 µM

If you can, please state the reported IC50 value of "CN(CCO)c1nc2oc(-c3ccc(C4(N)CCC4)cc3)c(-c3ccccc3)c2c(=O)n1C" .
> 10 µM

Next molecule up: "NC1(c2ccc(-c3oc4ncc(COCc5ccccc5)nc4c3-c3ccccc3)cc2)CCC1"
1 to 10 µM

###

Target: AKT2 (Homo sapiens)
Sequence (P31751 whole entry): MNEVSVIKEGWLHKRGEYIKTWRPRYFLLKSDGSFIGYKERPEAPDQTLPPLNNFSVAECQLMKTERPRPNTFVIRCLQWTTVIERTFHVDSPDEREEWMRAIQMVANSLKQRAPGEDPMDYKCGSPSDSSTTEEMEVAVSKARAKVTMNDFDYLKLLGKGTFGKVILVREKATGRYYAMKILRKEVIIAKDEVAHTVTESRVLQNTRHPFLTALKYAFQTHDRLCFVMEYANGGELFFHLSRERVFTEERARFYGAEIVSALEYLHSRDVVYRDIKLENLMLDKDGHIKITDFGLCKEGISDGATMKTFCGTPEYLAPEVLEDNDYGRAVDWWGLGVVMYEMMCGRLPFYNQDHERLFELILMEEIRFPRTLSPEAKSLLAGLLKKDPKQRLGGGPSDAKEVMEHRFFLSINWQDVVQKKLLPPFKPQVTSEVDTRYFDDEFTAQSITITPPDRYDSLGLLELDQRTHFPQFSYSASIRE
Assay: AKT Kinase Assay (IMAP fluorescent polarisation) vs AKT2
Conditions: activated AKT2, FAM Crosstide substrate
Description: Testing of the compounds was performed using an AKT Kinase Assay: Activated AKT isoforms 1, 2 and 3 were assayed utilising a 5′ FAM Crosstide (Seq. GRPRTSSFAEG-OH). The extent of kinase phosphorylation was determined by fluorescent polarisation using IMAP progressive binding reagent, which introduces binding beads which allow the reagent to specifically bind to phosphate residues via covalent co-ordination complex bonds. […]
Counter-ions that a name gives are not always drawn.
Each record here notes measured IC50.

Reference set, count: 3
>>> df
                                   molecule  parameter  measured_result
0  Cc1nc2oc(-c3ccc(C4(N)CCC4)cc3)c(-c3ccccc3)c2c(=O)n1C       IC50   100 to 1000 nM
1  COc1nccc2c(-c3ccccc3)c(-c3ccc(C4(N)CCC4)cc3)oc12       IC50   100 to 1000 nM
2  N#Cc1cccc2c(-c3ccccc3)c(-c3ccc(C4(N)CNC4)cc3)oc12       IC50       > 10000 nM

If you can, please state the reported IC50 value of "NC1CCN(c2ncc3c(-c4ccccc4)c(-c4ccc(C5(N)CCC5)cc4)oc3n2)CC1" .
100 to 1000 nM

Next molecule up: NC1(c2ccc(-c3oc4ncn(CC(F)(F)F)c(=O)c4c3-c3ccccc3)cc2)CCC1 [Example 106, HCl]
≤ 100 nM

###

Each record here notes measured IC50.
Target: AKT1 (Homo sapiens)
Sequence (P31749 whole entry): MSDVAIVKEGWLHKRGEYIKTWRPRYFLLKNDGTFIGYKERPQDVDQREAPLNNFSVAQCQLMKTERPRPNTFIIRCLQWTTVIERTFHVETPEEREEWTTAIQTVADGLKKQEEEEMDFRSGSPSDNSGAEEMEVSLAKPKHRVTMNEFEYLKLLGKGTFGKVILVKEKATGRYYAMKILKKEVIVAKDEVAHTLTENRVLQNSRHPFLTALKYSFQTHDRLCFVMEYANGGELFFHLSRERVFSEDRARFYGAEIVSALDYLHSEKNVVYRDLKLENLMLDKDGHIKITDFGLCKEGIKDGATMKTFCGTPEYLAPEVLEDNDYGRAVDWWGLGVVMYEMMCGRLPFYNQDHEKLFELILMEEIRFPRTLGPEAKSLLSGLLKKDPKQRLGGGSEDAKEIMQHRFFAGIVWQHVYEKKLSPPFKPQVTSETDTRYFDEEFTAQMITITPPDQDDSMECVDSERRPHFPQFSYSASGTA
Experiment: AKT Kinase Assay (IMAP fluorescent polarisation) vs AKT1
Conditions: activated AKT1, FAM Crosstide substrate
Description: Testing of the compounds was performed using an AKT Kinase Assay: Activated AKT isoforms 1, 2 and 3 were assayed utilising a 5′ FAM Crosstide (Seq. GRPRTSSFAEG-OH). The extent of kinase phosphorylation was determined by fluorescent polarisation using IMAP progressive binding reagent, which introduces binding beads which allow the reagent to specifically bind to phosphate residues via covalent co-ordination complex bonds. […]
Counter-ions that a name gives are not always drawn.

Reference set, count: 6
>>> df
                                   molecule      measured_target  measured_result
0  C[C@@H](O)CNc1nc2oc(-c3ccc(C4(N)CCC4)cc3)c(-c3ccccc3)c2c(=O)n1C  AKT1 (Homo sapiens)      0.1 to 1 µM
1  COCCn1c(SC)nc2oc(-c3ccc(C4(N)CCC4)cc3)c(-c3ccccc3)c2c1=O [Example 67, HCl]  AKT1 (Homo sapiens)      0.1 to 1 µM
2  CCNc1nc(NCCO)nc2oc(-c3ccc(C4(N)CCC4)cc3)c(-c3ccccc3)c12 [Example 81, HCl]  AKT1 (Homo sapiens)      0.1 to 1 µM
3  N#Cc1cccc2c(-c3ccccc3)c(-c3ccc(C4(N)CNC4)cc3)oc12  AKT1 (Homo sapiens)      0.1 to 1 µM
4  Cn1c(N2CC[C@@H](O)C2)nc2oc(-c3ccc(C4(N)CCC4)cc3)c(-c3ccccc3)c2c1=O  AKT1 (Homo sapiens)      0.1 to 1 µM
5  NC1(c2ccc(-c3oc4ccn(CC(F)(F)F)c(=O)c4c3-c3ccccc3)cc2)CCC1 [Example 109, HCl]  AKT1 (Homo sapiens)       1 to 10 µM

What reported IC50 corresponds to CCOc1nc(N2CCNCC2)nc2oc(-c3ccc(C4(N)CCC4)cc3)c(-c3ccccc3)c12 [Example 46, HCl] on AKT1 (Homo sapiens)?
0.1 to 1 µM

Next molecule up: "COc1nc(NCCN)nc2oc(-c3ccc(C4(N)CCC4)cc3)c(-c3ccccc3)c12"
0.1 to 1 µM

Next molecule up: "NC1(c2ccc(-c3oc4ncc([N+](=O)[O-])cc4c3-c3ccccc3)cc2)CCC1"
1 to 10 µM

Next molecule up: CNc1nc(NCCO)nc2oc(-c3ccc(C4(N)CCC4)cc3)c(-c3ccccc3)c12 [Example 79, HCl]
0.1 to 1 µM
